EXPERIMENTAL_TARGET: hKIT (Homo sapiens)
Sequence (P10721 26-976): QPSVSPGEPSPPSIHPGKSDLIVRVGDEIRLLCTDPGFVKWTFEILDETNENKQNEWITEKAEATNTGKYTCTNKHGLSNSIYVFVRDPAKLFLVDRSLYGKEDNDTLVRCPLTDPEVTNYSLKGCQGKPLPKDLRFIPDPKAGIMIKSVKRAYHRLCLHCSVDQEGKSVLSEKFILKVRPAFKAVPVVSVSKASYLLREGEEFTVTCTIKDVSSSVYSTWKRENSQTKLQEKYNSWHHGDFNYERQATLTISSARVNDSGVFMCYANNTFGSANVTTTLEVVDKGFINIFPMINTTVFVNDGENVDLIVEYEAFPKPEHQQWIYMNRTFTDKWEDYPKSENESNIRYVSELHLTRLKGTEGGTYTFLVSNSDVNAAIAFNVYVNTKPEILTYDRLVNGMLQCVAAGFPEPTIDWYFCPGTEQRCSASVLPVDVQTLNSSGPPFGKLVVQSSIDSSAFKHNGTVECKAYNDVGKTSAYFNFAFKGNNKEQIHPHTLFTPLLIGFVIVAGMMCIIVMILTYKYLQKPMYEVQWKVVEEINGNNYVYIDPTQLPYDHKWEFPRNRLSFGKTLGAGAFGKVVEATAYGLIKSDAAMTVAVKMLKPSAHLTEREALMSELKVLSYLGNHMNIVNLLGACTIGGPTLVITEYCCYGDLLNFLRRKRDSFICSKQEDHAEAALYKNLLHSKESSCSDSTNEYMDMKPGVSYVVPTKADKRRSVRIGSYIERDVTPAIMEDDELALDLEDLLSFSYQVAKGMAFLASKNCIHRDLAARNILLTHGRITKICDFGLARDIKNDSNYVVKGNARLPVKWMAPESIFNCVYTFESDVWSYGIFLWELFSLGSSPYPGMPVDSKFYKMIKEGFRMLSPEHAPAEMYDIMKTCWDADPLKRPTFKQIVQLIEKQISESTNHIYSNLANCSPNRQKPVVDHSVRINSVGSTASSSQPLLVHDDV
MEASUREMENT_TYPE: IC50

Observed IC50 on hKIT (Homo sapiens) for Cc1cn(CCN2CCN(c3ccccc3-c3cc(C#N)cc(C(=O)NCCCN4CCCC4)c3)CC2)c2ccccc12 , please.
> 20 µM

---

EXPERIMENTAL_TARGET: hABL2 (Homo sapiens, UniProt P42684)
MEASUREMENT_TYPE: IC50

Observed IC50 on hABL2 (Homo sapiens, UniProt P42684) for Cc1cn(CCN2CCN(c3ccccc3-c3cc(C#N)cc(C(=O)NCCCN4CCCC4)c3)CC2)c2ccccc12 [LLY-507] , please.
> 20 µM

---

EXPERIMENTAL_TARGET: hKIT(L576P) (Homo sapiens, UniProt P10721, L576P)
Sequence (P10721 26-976 L576P): as the sequence (P10721 26-976) above, with L551P counted along it
MEASUREMENT_NOTES: KINOMEscan
pIC50: −log10 of the molar value.
MEASUREMENT_TYPE: pIC50

Fill in the blank: the reported pIC50 of Cc1cn(CCN2CCN(c3ccccc3-c3cc(C#N)cc(C(=O)NCCCN4CCCC4)c3)CC2)c2ccccc12 is ____.
< 4.70

---

EXPERIMENTAL_TARGET: hMAP3K3 (Homo sapiens)
MEASUREMENT_TYPE: IC50

Fill in the blank: the reported IC50 of Cc1cn(CCN2CCN(c3ccccc3-c3cc(C#N)cc(C(=O)NCCCN4CCCC4)c3)CC2)c2ccccc12 [LLY-507] is ____.
> 20 µM

---

EXPERIMENTAL_TARGET: hAURKC (Homo sapiens, UniProt Q9UQB9)
Sequence (Q9UQB9 1-309): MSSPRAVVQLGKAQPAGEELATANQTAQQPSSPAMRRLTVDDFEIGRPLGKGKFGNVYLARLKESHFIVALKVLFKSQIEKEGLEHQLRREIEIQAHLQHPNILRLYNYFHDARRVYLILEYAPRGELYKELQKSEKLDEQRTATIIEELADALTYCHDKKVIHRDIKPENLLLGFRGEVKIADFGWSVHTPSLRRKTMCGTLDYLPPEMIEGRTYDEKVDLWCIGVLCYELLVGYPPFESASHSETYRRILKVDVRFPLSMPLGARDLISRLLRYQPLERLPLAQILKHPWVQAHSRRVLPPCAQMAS
MEASUREMENT_TYPE: IC50

Fill in the blank: the reported IC50 of Cc1cn(CCN2CCN(c3ccccc3-c3cc(C#N)cc(C(=O)NCCCN4CCCC4)c3)CC2)c2ccccc12 is ____.
> 20 µM

---

EXPERIMENTAL_TARGET: hROCK2 (Homo sapiens)
MEASUREMENT_TYPE: IC50

Fill in the blank: the reported IC50 of Cc1cn(CCN2CCN(c3ccccc3-c3cc(C#N)cc(C(=O)NCCCN4CCCC4)c3)CC2)c2ccccc12 is ____.
> 20 µM

---

EXPERIMENTAL_TARGET: hGCN2(Kin.Dom.2,S808G) (Homo sapiens, UniProt Q9P2K8, S808G)
Construct: hGCN2(Kin.Dom.2,S808G); purchased DiscoverX
Sequence (Q9P2K8 590-1001 S808G limits assumed): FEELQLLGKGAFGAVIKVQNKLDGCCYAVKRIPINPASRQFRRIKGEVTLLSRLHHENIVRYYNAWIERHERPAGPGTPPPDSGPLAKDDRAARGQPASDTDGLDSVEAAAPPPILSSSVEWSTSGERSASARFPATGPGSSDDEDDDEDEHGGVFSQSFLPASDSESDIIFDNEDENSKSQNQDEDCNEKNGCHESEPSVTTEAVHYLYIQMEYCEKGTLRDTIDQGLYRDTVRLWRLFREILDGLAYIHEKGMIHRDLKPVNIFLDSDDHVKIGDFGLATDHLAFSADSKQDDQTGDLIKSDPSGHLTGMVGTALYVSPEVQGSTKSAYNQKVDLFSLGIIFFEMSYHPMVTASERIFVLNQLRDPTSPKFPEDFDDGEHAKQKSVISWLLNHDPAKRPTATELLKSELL
MEASUREMENT_NOTES: KINOMEscan
Assay type: binding
MEASUREMENT_TYPE: IC50

Fill in the blank: the reported IC50 of Cc1cn(CCN2CCN(c3ccccc3-c3cc(C#N)cc(C(=O)NCCCN4CCCC4)c3)CC2)c2ccccc12 is ____.
> 20 µM

Measured values drawn from paper PMC4447944 for this set.
